Values compiled from ChEMBL document CHEMBL1157935.

Recorded inhibition, one value per entry.
Molecular target: Cytosolic phospholipase A2 (Homo sapiens)
Sequence (whole entry): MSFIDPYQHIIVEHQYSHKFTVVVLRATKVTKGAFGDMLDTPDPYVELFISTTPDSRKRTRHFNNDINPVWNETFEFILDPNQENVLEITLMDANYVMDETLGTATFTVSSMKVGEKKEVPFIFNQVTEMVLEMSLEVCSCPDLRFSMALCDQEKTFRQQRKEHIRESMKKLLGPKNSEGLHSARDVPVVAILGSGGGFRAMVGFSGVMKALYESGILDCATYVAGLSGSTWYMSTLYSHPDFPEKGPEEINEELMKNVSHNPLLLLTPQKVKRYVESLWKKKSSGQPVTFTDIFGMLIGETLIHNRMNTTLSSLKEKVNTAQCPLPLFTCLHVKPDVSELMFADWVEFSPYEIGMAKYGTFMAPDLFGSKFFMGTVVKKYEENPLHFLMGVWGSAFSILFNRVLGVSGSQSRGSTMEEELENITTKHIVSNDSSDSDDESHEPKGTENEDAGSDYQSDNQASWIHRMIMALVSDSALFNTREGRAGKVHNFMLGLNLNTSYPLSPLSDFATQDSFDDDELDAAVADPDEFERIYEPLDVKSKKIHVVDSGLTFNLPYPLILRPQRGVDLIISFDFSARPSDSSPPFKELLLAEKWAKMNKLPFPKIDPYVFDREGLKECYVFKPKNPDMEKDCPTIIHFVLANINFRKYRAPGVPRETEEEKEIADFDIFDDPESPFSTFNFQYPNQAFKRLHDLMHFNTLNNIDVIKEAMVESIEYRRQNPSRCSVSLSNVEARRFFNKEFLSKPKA
Experiment: Inhibition of human group […] cPLA2 at 0.091 mol fraction after 30 mins by Dole assay
Expressed in %, but write only the number.

O=C(C(F)CCCCc1ccccc1)C(F)(F)F (configuration not stated)	66

// recorded inhibition for `CCCCCCCC/C=C\CCCCCCCC(=O)C(F)(F)C(F)(F)C(F)(F)F` : 57

// recorded inhibition for O=C(C(F)CCCc1ccccc1)C(F)(F)F (configuration not stated) : 52.1

// recorded inhibition for `CCCCCCCC/C=C\CCCCCCCC(=O)C(F)(F)C(F)(F)F` : 41.4

// recorded inhibition for `O=C(CCCCc1ccc2ccccc2c1)C(F)(F)F` : 80.8

// recorded inhibition for `O=C(CCCCc1ccc2ccccc2c1)C(F)(F)C(F)(F)F` : 77.1

// recorded inhibition for OC(CCCCc1ccccc1)C(F)(F)C(F)(F)C(F)(F)F (configuration not stated) : 82

// recorded inhibition for `O=C(CCCCc1ccc2ccccc2c1)C(F)(F)C(F)(F)C(F)(F)F` : 55.8

// recorded inhibition for OC(CCCCc1ccccc1)C(F)(F)C(F)(F)F (configuration not stated) : 44.8

// recorded inhibition for `O=C(/C=C/C=C/c1ccccc1)C(F)(F)C(F)(F)F` : 59

// recorded inhibition for `O=C(CCCCc1ccccc1)C(F)(F)C(F)(F)C(F)(F)F` : 32.6

// recorded inhibition for `CCCCCCOc1ccc(CCCCC(=O)C(F)(F)C(F)(F)F)cc1` : 76.1

// recorded inhibition for `CCCCCCCCc1ccc(OCCCC(=O)C(F)(F)C(F)(F)F)cc1` : 88.8

// recorded inhibition for O=C(C(F)CCCc1ccccc1)C(F)(F)C(F)(F)C(F)(F)F (configuration not stated) : 79.9

* * *

target: Phospholipase A2 group V (Homo sapiens) (UniProt P39877); assay: Inhibition of human group 5 sPLA2 at 0.091 mol fraction after 30 mins
Recorded inhibition, one value per entry.
Expressed in %, but write only the number.

Study these solved cases before continuing.
O=C(C(F)CCCc1ccccc1)C(F)(F)C(F)(F)F (centres undefined)	39.1
O=C(CCCCc1ccc2ccccc2c1)C(F)(F)C(F)(F)C(F)(F)F	46.3
CCCCCCCC/C=C\CCCCCCCC(=O)C(F)(F)C(F)(F)C(F)(F)F	33.9

--- query ---
Observed inhibition on Phospholipase A2 group V (Homo sapiens) (UniProt P39877), entry `CCCCCCCCc1ccc(OCCCC(=O)C(F)(F)C(F)(F)F)cc1` , equals 63

* * *

target: 85/88 kDa calcium-independent phospholipase A2 (Homo sapiens) (UniProt O60733); test: Inhibition of human recombinant group 6A iPLA2 expressed in Sf9 insect cells after 30 mins by Dole assay
Sequence (O60733 whole entry): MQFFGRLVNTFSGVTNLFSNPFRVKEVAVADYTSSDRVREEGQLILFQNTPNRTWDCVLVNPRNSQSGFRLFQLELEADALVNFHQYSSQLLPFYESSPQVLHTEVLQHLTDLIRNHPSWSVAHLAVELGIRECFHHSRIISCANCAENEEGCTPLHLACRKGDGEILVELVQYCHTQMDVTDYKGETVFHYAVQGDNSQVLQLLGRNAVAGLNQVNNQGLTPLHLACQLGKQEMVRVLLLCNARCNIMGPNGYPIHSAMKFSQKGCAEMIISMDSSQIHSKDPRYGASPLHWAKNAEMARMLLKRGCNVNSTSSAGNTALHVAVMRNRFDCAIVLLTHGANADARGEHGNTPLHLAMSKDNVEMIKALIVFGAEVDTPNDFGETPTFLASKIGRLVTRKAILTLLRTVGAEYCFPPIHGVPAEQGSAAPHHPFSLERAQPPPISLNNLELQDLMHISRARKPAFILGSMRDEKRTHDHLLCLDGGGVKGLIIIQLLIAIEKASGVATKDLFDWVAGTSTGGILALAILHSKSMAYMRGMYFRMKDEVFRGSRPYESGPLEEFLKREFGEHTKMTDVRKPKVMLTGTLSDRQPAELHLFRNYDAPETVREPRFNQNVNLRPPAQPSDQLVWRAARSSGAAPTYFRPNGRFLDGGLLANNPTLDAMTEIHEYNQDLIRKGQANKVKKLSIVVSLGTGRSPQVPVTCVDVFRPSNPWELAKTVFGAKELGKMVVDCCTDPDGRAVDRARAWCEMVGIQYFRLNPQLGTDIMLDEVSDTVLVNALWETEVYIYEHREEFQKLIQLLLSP
reported_endpoint: XI50 (mole fraction)
Respond with the number and no other words.

Study these solved cases before continuing.
O=C(CCCCc1ccccc1)C(F)(F)C(F)(F)F	0.0014
O=C(CCCCCc1ccccc1)C(F)(F)C(F)(F)C(F)(F)F	0.003
OC(CCCCc1ccccc1)C(F)(F)C(F)(F)F (centres undefined)	0.039

--- query ---
// recorded XI50 (mole fraction) for `O=Cc1ccc(CCCCC(=O)C(F)(F)C(F)(F)F)o1` : 0.0262

* * *

Recorded inhibition, one value per entry.
biological target: 85/88 kDa calcium-independent phospholipase A2 (Homo sapiens); test: Inhibition of human recombinant group 6A iPLA2 expressed in Sf9 insect cells at 0.091 mol fraction after 30 mins by Dole assay
Expressed in %, but write only the number.

Study these solved cases before continuing.
O=C(CCCCc1ccc2ccccc2c1)C(F)(F)C(F)(F)F	99.8
CCCCCCCC/C=C\CCCCCCCC(=O)C(F)(F)C(F)(F)C(F)(F)F	80.6
O=C(C(F)CCCc1ccccc1)C(F)(F)F (stereo not given)	97.6
OC(CCCCc1ccccc1)C(F)(F)C(F)(F)C(F)(F)F (stereo not given)	97
O=C(/C=C/C=C/c1ccccc1)C(F)(F)C(F)(F)F	96
CCCCCCCCc1ccc(OCCCC(=O)C(F)(F)F)cc1	99.4
O=C(CCCCc1ccccc1)C(F)(F)C(F)(F)C(F)(F)F	99.4
OC(CCCCc1ccccc1)C(F)(F)C(F)(F)F (stereo not given)	94.3

// recorded inhibition for `O=C(CCCCc1ccc2ccccc2c1)C(F)(F)F` : 99.9

// recorded inhibition for O=C(C(F)CCCc1ccccc1)C(F)(F)C(F)(F)F (stereo not given) : 100

// recorded inhibition for `O=C(/C=C/c1ccccc1)C(F)(F)C(F)(F)F` : 96.4

// recorded inhibition for `CCCCCCOc1ccc(CCCCC(=O)C(F)(F)C(F)(F)F)cc1` : 98.3

// recorded inhibition for O=C(C(F)CCCc1ccccc1)C(F)(F)C(F)(F)C(F)(F)F (stereo not given) : 100

// recorded inhibition for `O=C(CCCCCc1ccccc1)C(F)(F)C(F)(F)C(F)(F)F` : 98.4

// recorded inhibition for O=C(C(F)CCCCc1ccccc1)C(F)(F)F (stereo not given) : 98.8

* * *

biological target: 85/88 kDa calcium-independent phospholipase A2 (Homo sapiens) (UniProt O60733); test: Inhibition of human recombinant group 6A iPLA2 expressed in Sf9 insect cells after 30 mins by Dole assay
Classify: y when XI50 (mole fraction) is strictly less than 0.004; n when XI50 (mole fraction) is not.

CCCCCCCC/C=C\CCCCCCCC(=O)C(F)(F)C(F)(F)F	n
CCCCCCOc1ccc(CCCCC(=O)C(F)(F)C(F)(F)C(F)(F)F)cc1	n
O=C(/C=C/c1ccccc1)C(F)(F)C(F)(F)F	n

stdin: I wonder whether `O=C(CCCCc1ccc2ccccc2c1)C(F)(F)F` has XI50 (mole fraction) below 0.004. Can you tell?
stdout: y

stdin: I wonder whether `O=C(CCCOc1ccccc1)C(F)(F)C(F)(F)F` has XI50 (mole fraction) below 0.004. Can you tell?
stdout: y

stdin: I wonder whether `CCCCCCCCc1ccc(OCCCC(=O)C(F)(F)F)cc1` has XI50 (mole fraction) below 0.004. Can you tell?
stdout: y

* * *

molecular target: 85/88 kDa calcium-independent phospholipase A2 (Homo sapiens) (UniProt O60733); experiment: Inhibition of human recombinant group 6A iPLA2 expressed in Sf9 insect cells at 0.091 mol fraction after 30 mins by Dole assay
reported_endpoint: inhibition (%)
Expressed in %, but write only the number.

// recorded inhibition for `O=C(CCCOc1ccccc1)C(F)(F)C(F)(F)F` : 99.1

// recorded inhibition for `O=C(CCCCc1ccc2ccccc2c1)C(F)(F)C(F)(F)C(F)(F)F` : 99.7

// recorded inhibition for `CCCCCCCCc1ccc(OCCCC(=O)C(F)(F)C(F)(F)F)cc1` : 99.4

// recorded inhibition for `CCCCCCCC/C=C\CCCCCCCC(=O)C(F)(F)C(F)(F)F` : 95.5

// recorded inhibition for `O=Cc1ccc(CCCCC(=O)C(F)(F)C(F)(F)F)o1` : 84.4

// recorded inhibition for `CCCCCCOc1ccc(CCCCC(=O)C(F)(F)C(F)(F)C(F)(F)F)cc1` : 95.8

* * *

Target: Phospholipase A2 group V (Homo sapiens) (UniProt P39877)
Sequence (whole entry): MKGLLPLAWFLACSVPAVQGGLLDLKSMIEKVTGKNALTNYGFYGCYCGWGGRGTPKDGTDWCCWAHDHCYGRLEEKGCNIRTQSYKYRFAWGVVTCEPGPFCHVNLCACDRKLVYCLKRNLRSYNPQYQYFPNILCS
Experiment: Inhibition of human group 5 sPLA2 at 0.091 mol fraction after 30 mins
reported_endpoint: inhibition (%)
Expressed in %, but write only the number.

Study these solved cases before continuing.
O=C(CCCCc1ccccc1)C(F)(F)C(F)(F)C(F)(F)F	61.8
OC(CCCCc1ccccc1)C(F)(F)C(F)(F)F (configuration not stated)	67.3
O=Cc1ccc(CCCCC(=O)C(F)(F)C(F)(F)F)o1	41.9
CCCCCCCC/C=C\CCCCCCCC(=O)C(F)(F)C(F)(F)F	67
CCCCCCOc1ccc(CCCCC(=O)C(F)(F)C(F)(F)C(F)(F)F)cc1	76.9

// recorded inhibition for `CCCCCCCCc1ccc(OCCCC(=O)C(F)(F)F)cc1` : 61.4

// recorded inhibition for `O=C(/C=C/c1ccccc1)C(F)(F)C(F)(F)F` : 76.9

// recorded inhibition for `CCCCCCOc1ccc(CCCCC(=O)C(F)(F)C(F)(F)F)cc1` : 71.7

// recorded inhibition for OC(CCCCc1ccccc1)C(F)(F)C(F)(F)C(F)(F)F (configuration not stated) : 65.8

// recorded inhibition for `O=C(CCCCc1ccc2ccccc2c1)C(F)(F)C(F)(F)F` : 58.4

// recorded inhibition for `O=C(CCCCc1ccc2ccccc2c1)C(F)(F)F` : 36.8

// recorded inhibition for O=C(C(F)CCCc1ccccc1)C(F)(F)C(F)(F)C(F)(F)F (configuration not stated) : 36.1
